target: human EGFR Ex19del+T790M+L792F (Homo sapiens, UniProt P00533, DEL746-750/L792F/T790M); assay: Intracellular EGFR phosphorylation, mutant EGFR forced expression system using HEK293 cells; conditions: 6 hours incubation, p-EGFR (Tyr1068)/EGFR
Sequence (P00533 with tags, fused parts or gaps DEL746-750/T790M/L792F): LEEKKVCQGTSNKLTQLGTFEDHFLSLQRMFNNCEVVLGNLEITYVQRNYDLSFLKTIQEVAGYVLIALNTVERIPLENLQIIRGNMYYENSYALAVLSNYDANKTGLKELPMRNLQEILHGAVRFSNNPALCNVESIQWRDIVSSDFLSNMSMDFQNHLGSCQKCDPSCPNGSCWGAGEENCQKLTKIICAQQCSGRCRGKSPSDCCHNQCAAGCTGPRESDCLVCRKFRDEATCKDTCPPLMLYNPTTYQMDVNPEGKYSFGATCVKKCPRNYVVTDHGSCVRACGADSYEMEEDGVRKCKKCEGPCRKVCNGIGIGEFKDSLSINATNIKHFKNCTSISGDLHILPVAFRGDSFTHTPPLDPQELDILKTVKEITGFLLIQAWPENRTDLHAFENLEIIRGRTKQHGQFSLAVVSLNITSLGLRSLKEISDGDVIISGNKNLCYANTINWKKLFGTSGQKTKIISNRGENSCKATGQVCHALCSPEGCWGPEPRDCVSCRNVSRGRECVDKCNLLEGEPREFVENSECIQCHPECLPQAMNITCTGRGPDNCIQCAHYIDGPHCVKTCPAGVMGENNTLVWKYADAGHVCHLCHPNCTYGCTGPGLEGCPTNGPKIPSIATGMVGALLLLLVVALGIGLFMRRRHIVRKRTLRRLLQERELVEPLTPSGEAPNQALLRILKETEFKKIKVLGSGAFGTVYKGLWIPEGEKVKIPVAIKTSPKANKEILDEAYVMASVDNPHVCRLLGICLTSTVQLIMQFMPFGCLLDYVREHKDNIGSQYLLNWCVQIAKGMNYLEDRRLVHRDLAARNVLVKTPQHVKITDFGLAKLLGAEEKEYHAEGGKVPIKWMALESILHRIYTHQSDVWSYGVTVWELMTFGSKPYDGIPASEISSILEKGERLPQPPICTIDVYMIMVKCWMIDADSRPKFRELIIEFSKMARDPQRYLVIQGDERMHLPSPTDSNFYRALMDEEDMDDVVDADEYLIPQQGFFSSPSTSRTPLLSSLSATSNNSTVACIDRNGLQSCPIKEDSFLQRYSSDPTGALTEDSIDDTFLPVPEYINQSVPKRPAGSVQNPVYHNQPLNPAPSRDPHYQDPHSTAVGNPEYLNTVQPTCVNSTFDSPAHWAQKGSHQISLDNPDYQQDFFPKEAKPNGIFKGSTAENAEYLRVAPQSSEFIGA
reported_endpoint: IC50 (µM)
Could you give me the number in µM? Just the number is fine.

Task: Fill in the blank: the reported IC50 of C=CC(=O)N[C@H]1C=C(C)c2c(-c3cnc4ccccc4c3)c3c(N)ncnc3n2C1 [Compound A] is ____.
Output: 6.25

----------
target: human EGFR Ex19del (Del E746-A750) (Homo sapiens, UniProt P00533, DEL746-750); assay: Intracellular EGFR phosphorylation, mutant EGFR forced expression system using HEK293 cells; details: 6 hours incubation, p-EGFR (Tyr1068)/EGFR
Sequence (P00533 with tags, fused parts or gaps DEL746-750): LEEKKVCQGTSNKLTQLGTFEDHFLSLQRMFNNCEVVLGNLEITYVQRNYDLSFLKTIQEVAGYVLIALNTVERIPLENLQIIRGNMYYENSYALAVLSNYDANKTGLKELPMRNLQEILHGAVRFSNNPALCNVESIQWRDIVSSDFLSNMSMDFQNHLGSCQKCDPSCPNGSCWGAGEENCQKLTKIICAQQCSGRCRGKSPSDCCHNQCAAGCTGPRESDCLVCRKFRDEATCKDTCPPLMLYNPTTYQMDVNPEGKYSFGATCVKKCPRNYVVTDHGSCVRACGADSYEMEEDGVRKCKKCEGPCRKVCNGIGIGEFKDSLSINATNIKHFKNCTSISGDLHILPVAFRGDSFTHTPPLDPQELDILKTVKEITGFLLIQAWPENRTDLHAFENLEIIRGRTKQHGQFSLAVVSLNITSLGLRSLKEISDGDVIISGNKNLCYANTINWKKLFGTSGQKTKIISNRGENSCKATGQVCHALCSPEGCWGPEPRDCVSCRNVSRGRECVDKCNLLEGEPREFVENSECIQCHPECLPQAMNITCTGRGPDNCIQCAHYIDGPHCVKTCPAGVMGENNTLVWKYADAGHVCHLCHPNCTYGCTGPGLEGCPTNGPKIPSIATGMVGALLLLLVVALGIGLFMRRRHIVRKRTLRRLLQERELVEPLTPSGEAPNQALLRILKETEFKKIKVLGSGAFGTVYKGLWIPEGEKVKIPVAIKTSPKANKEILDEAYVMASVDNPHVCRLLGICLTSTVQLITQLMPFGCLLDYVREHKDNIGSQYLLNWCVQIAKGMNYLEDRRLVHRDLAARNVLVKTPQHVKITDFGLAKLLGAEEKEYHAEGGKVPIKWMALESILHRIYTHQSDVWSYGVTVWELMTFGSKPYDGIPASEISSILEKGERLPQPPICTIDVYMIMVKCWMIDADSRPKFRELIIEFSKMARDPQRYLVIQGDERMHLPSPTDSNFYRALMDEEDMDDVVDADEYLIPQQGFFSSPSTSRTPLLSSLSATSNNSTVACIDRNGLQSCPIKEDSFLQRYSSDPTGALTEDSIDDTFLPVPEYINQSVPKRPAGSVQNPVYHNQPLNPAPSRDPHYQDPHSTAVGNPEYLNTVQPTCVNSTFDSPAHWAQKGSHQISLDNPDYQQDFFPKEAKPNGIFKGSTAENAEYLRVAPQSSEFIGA
reported_endpoint: IC50 (µM)
Could you give me the number in µM? Just the number is fine.

Task: Fill in the blank: the reported IC50 of "C=CC(=O)N[C@H]1C=C(C)c2c(-c3cnc4ccccc4c3)c3c(N)ncnc3n2C1" is ____.
Output: 11.2
